- test_description: Plasma pharmacokinetics of curcumin and THC during and after intravenous infusion of liposomal curcumin
- Assay type: in vivo, Beagle dogs
- condition_label: both sexes, beagle, dog, in vivo, iv, 10 mg/kg, 2 hr infusion, 10 mg/kg; plasma without phosphoric acid; AUC to 15 min post-infusion; read-out: AUC
readout_kind: AUC (ng·h/mL)
Provide the reading as a plain figure in ng·h/mL.

Query: AUC; subject: COc1cc(CCC(=O)CC(=O)CCc2ccc(O)c(OC)c2)ccc1O [THC, tetrahydrocurcumin]
1320

###

- test_description: in vivo
- Design: species or system Beagle dogs
- condition_label: both sexes, beagle, dog, in vivo, Kp [tissue]/[plasma], Heart
readout_kind: Kp at 8 h
// response body must contain only the number

Query: Kp at 8 h; subject: COc1cc(/C=C/C(=O)CC(=O)/C=C/c2ccc(O)c(OC)c2)ccc1O [Curcumin, reference compound]
0.0503

###

- test_description: Plasma pharmacokinetics of curcumin and THC during and after intravenous infusion of liposomal curcumin
- Assay type: in vivo, Beagle dogs
- condition_label: both sexes, Beagle, dog, in vivo, iv, 10 mg/kg, 8 hr infusion, 10 mg/kg; plasma without phosphoric acid; AUC to 15 min post-infusion; read-out: AUC
readout_kind: AUC (ng·h/mL)
Provide the reading as a plain figure in ng·h/mL.

Query: AUC; subject: COc1cc(CCC(=O)CC(=O)CCc2ccc(O)c(OC)c2)ccc1O [THC, tetrahydrocurcumin]
411

###

- test_description: Tissue distribution of curcumin and THC at necropsy 15 minutes post-infusion
- Set-up: species or system Beagle dogs
- condition_label: both sexes, beagle, dog, in vivo, 10 mg/kg, Eight hour infusion; H3PO4 stabilized; read-out: Average tissue concentration, Pancreas
readout_kind: concentration at 15 min
Dear colleague, please send the value followed by its unit.

Query: concentration at 15 min; subject: COc1cc(CCC(=O)CC(=O)CCc2ccc(O)c(OC)c2)ccc1O [THC, tetrahydrocurcumin]
1.34 ng/g

###

- test_description: Tissue distribution of curcumin and THC at necropsy 15 minutes post-infusion
- Parameters: species or system Beagle dogs
- condition_label: both sexes, beagle, dog, in vivo, 10 mg/kg, 8 hour infusion; Plus H3PO4; read-out: Tissue level, Brain Stem
readout_kind: concentration at 15 min

Query: concentration at 15 min; subject: COc1cc(CCC(=O)CC(=O)CCc2ccc(O)c(OC)c2)ccc1O [THC, tetrahydrocurcumin]
3.02 ng/g

###

- test_description: Plasma, urine and bile levels of curcumin and THC 15 minutes post-infusion
- Type: in vivo, Beagle dogs
- condition_label: both sexes, Beagle, dog, in vivo, 10 mg/kg, 15 min after 8 hour infusion; + H3PO4; mean±SE; read-out: Plasma level
readout_kind: concentration at 15 min (ng/mL)
Provide the reading as a plain figure in ng/mL.

Query: concentration at 15 min; subject: COc1cc(CCC(=O)CC(=O)CCc2ccc(O)c(OC)c2)ccc1O [THC, tetrahydrocurcumin]
142

###

- test_description: in vivo
- Parameters: species or system Beagle dogs
- condition_label: both sexes, beagle, dog, in vivo, Kp [tissue]/[plasma], Kidney
readout_kind: Kp at 8 h

Query: Kp at 8 h; subject: COc1cc(/C=C/C(=O)CC(=O)/C=C/c2ccc(O)c(OC)c2)ccc1O [Curcumin, reference compound]
0.186

###

- test_description: in vivo
- Set-up: species or system Beagle dogs
- condition_label: both sexes, beagle, dog, in vivo, Kp [tissue]/[plasma], Urinary Bladder
readout_kind: Kp at 2 h
// response body must contain only the number

Query: Kp at 2 h; subject: COc1cc(/C=C/C(=O)CC(=O)/C=C/c2ccc(O)c(OC)c2)ccc1O [Curcumin, reference compound]
0.0125

###

- test_description: Tissue distribution of curcumin and THC at necropsy 15 minutes post-infusion
- Design: species or system Beagle dogs
- condition_label: both sexes, beagle, dog, in vivo, 10 mg/kg, 8 hour infusion; No H3PO4; read-out: Tissue level, Liver
readout_kind: concentration at 15 min (ng/g)
Provide the reading as a plain figure in ng/g.

Query: concentration at 15 min; subject: COc1cc(CCC(=O)CC(=O)CCc2ccc(O)c(OC)c2)ccc1O [THC, tetrahydrocurcumin]
2.63

###

- test_description: Tissue distribution of curcumin and THC at necropsy 15 minutes post-infusion
- Parameters: species or system Beagle dogs
- condition_label: both sexes, beagle, dog, in vivo, 10 mg/kg, 2 hour infusion; No H3PO4; read-out: Tissue level, Lungs
readout_kind: concentration at 15 min (ng/g)
Provide the reading as a plain figure in ng/g.

Query: concentration at 15 min; subject: COc1cc(CCC(=O)CC(=O)CCc2ccc(O)c(OC)c2)ccc1O [THC, tetrahydrocurcumin]
25

###

- test_description: Tissue distribution of curcumin and THC at necropsy 15 minutes post-infusion
- Design: species or system Beagle dogs
- condition_label: both sexes, beagle, dog, in vivo, 10 mg/kg, Two hour infusion; H3PO4 stabilized; read-out: Average tissue concentration, Liver
readout_kind: concentration at 15 min (ng/g)
Provide the reading as a plain figure in ng/g.

Query: concentration at 15 min; subject: COc1cc(CCC(=O)CC(=O)CCc2ccc(O)c(OC)c2)ccc1O [THC, tetrahydrocurcumin]
4.58

###

- test_description: Tissue distribution of curcumin and THC at necropsy 15 minutes post-infusion
- Design: species or system Beagle dogs
- condition_label: both sexes, beagle, dog, in vivo, 10 mg/kg, Table 15, 2 hour infusion; −H3PO4; read-out: Tissue analysis, Spleen
- Description: The test article will be administered to 8 Beagle dogs by intravenous infusion over two hours (Part A) or eight hours (Part B) as shown in Table 6. Multiple samples of tissue weighing approximately 1 gram were removed and snap frozen in the presence or absence of phosphoric acid (H3PO4). For all tissue samples, the levels of curcumin and THC were determined using a method developed by the Bioanalytical Department at Nucro-Technics. […]
readout_kind: concentration at 15 min post-infusion
Dear colleague, please send the value followed by its unit.

Query: concentration at 15 min post-infusion; subject: COc1cc(CCC(=O)CC(=O)CCc2ccc(O)c(OC)c2)ccc1O [THC, tetrahydrocurcumin]
0.32 ng/g

###

- test_description: Tissue distribution of curcumin and THC at necropsy 15 minutes post-infusion
- Set-up: species or system Beagle dogs
- condition_label: both sexes, beagle, dog, in vivo, 10 mg/kg, Table 15, 2 hour infusion; −H3PO4; read-out: Tissue analysis, Hippocampus
readout_kind: concentration at 15 min (ng/g)
Provide the reading as a plain figure in ng/g.

Query: concentration at 15 min; subject: COc1cc(CCC(=O)CC(=O)CCc2ccc(O)c(OC)c2)ccc1O [THC, tetrahydrocurcumin]
0.01

###

- test_description: Plasma, urine and bile levels of curcumin and THC 15 minutes post-infusion
- Type: in vivo, Beagle dogs
- condition_label: both sexes, Beagle, dog, in vivo, 10 mg/kg, 15 min after 8 hour infusion; + H3PO4; mean±SE; read-out: Urine level
- Description: The results and analysis for the study are presented for intravenous infusion dosing of a total dose of 10 mg/kg infused over a period of either 2 or 8 hours. Plasma levels of curcumin and its metabolite, THC were measured at timed intervals post-dosing. Bioanalysis was performed on two sets of samples, one set that was treated with phosphoric acid and one set that was not treated with phosphoric acid. […] Values that were below the limit of quantification were assigned a value of 0. […]
readout_kind: concentration at 15 min

Query: concentration at 15 min; subject: COc1cc(CCC(=O)CC(=O)CCc2ccc(O)c(OC)c2)ccc1O [THC, tetrahydrocurcumin]
621 ng/mL

###

- test_description: Tissue distribution of curcumin and THC at necropsy 15 minutes post-infusion
- Set-up: species or system Beagle dogs
- condition_label: both sexes, beagle, dog, in vivo, 10 mg/kg, 2 hr infusion; H3PO4 stabilized; read-out: Kp [tissue]/[plasma], Pancreas
readout_kind: Kp at 2 h
// response body must contain only the number

Query: Kp at 2 h; subject: COc1cc(CCC(=O)CC(=O)CCc2ccc(O)c(OC)c2)ccc1O [THC, tetrahydrocurcumin]
0.0017

###

- test_description: Tissue distribution of curcumin and THC at necropsy 15 minutes post-infusion
- Parameters: species or system Beagle dogs
- condition_label: both sexes, beagle, dog, in vivo, 10 mg/kg, 8 hr infusion; H3PO4 stabilized; read-out: Kp [tissue]/[plasma], Hippocampus
readout_kind: Kp at 8 h
// response body must contain only the number

Query: Kp at 8 h; subject: COc1cc(CCC(=O)CC(=O)CCc2ccc(O)c(OC)c2)ccc1O [THC, tetrahydrocurcumin]
0.0108

###

- test_description: Tissue distribution of curcumin and THC at necropsy 15 minutes post-infusion
- Set-up: species or system Beagle dogs
- condition_label: both sexes, beagle, dog, in vivo, 10 mg/kg, 8 hr infusion; H3PO4 stabilized; read-out: Kp [tissue]/[plasma], Striatum
readout_kind: Kp at 8 h
// response body must contain only the number

Query: Kp at 8 h; subject: COc1cc(CCC(=O)CC(=O)CCc2ccc(O)c(OC)c2)ccc1O [THC, tetrahydrocurcumin]
0.03
